Target Under Test: P-gp (Homo sapiens, UniProt P08183)
Construct: endogenous in cells; host or cells: Caco-2
Sequence (P08183 whole entry): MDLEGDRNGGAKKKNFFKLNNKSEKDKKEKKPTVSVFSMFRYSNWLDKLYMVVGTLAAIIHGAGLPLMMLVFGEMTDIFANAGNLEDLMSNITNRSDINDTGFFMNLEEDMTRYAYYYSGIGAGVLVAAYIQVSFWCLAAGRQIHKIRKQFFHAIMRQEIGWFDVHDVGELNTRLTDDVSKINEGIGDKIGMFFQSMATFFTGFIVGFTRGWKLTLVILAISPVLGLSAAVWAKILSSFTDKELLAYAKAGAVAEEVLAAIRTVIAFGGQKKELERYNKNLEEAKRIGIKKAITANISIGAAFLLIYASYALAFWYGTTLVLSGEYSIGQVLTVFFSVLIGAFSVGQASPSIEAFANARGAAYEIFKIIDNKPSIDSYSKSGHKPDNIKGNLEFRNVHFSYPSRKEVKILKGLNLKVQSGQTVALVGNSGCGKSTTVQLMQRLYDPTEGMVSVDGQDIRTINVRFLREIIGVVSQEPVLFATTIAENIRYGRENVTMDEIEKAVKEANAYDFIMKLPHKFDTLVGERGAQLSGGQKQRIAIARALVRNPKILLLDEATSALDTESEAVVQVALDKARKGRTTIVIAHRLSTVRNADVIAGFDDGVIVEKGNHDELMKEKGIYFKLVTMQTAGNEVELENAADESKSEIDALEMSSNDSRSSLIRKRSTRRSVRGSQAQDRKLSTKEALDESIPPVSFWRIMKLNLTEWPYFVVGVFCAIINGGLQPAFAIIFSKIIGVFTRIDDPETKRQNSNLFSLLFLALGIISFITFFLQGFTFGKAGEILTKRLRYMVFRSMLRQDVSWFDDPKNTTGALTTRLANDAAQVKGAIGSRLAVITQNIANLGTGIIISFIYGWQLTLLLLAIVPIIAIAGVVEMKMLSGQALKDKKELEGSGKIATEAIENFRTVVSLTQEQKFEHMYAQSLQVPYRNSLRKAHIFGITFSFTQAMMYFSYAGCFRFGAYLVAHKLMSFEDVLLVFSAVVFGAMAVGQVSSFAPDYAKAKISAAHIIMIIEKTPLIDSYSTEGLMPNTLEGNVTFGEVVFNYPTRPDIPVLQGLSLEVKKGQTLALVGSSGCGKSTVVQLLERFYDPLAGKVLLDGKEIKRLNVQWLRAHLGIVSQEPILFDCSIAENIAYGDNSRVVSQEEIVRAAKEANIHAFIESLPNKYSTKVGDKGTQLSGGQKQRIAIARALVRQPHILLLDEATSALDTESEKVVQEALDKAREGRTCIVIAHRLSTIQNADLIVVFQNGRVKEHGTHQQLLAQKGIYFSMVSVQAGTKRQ
Assay Protocol: P-gp substrate assessment (BA/AB transport ratio, with or without cyclosporine A)
Format: in vitro ADME
Assay Setup: human, Caco-2

[
  {
    "Compound": "COC(=O)N[C@H](C(=O)N1CCC[C@H]1c1nc2ccc(-c3csc4c(-c5ccc(-c6cnc([C@@H]7CCCN7C(=O)[C@H](NC(=O)OC)c7ccccc7)[nH]6)cc5)csc34)cc2[nH]1)C(C)C [compound of Formula I]",
    "efflux ratio": "< 1"
  }
]

---

Assay Protocol: Thermodynamic aqueous solubility
Assay type: physicochemical
Assay Setup: poor aqueous solubility, basis of BCS classification
Experimental: The suspension was equilibrated at 25° C. for 24 hours then the pH was measured. The suspension was then filtered through a glass fibre C filter. The filtrate was then diluted by an appropriate factor, e.g. 101. Quantitation was by HPLC with reference to a standard solution of approximately 0.25 mg/mL in DMSO. Different volumes of the standard, diluted and undiluted sample solutions were injected.

[
  {
    "Structure String": "COC(=O)N[C@H](C(=O)N1CCC[C@H]1c1nc2ccc(-c3csc4c(-c5ccc(-c6cnc([C@@H]7CCCN7C(=O)[C@H](NC(=O)OC)c7ccccc7)[nH]6)cc5)csc34)cc2[nH]1)C(C)C",
    "solubility": "< 500 µg/mL"
  }
]
